// data source = the NIST ThermoML archive (doi:10.1021/je0602925)

# test summary: activity coefficient (dimensionless); of the first substance listed, at infinite dilution; xn = mol fraction of the nth substance listed
# assay conditions: 308.15 K; Liquid; Chromatography; x1 = 0
metric name: activity coefficient

q: Which activity coefficient value belongs to CCCCCC [hexane] + CCCCCCCCCCCCCC[P+](CCCCCC)(CCCCCC)CCCCCC.O=S(=O)([N-]S(=O)(=O)C(F)(F)F)C(F)(F)F ?
a: 0.766

q: Would you kindly repeat that for C#CCCCC [1-hexyne] + CCCCCCCCCCCCCC[P+](CCCCCC)(CCCCCC)CCCCCC.O=S(=O)([N-]S(=O)(=O)C(F)(F)F)C(F)(F)F ?
a: 0.454

q: // repeat for CCCCCCC [heptane] + CCCCCCCCCCCCCC[P+](CCCCCC)(CCCCCC)CCCCCC.O=S(=O)([N-]S(=O)(=O)C(F)(F)F)C(F)(F)F and report
a: 0.783

q: What do you get for C#CCCCC [1-hexyne] + CCCCCCCCCCCCCC[P+](CCCCCC)(CCCCCC)CCCCCC.F[B-](F)(F)F ?
a: 0.345

q: Try C=CCCCC [hex-1-ene] + CCCCCCCCCCCCCC[P+](CCCCCC)(CCCCCC)CCCCCC.F[B-](F)(F)F next.
a: 0.57

q: Likewise for CCCCCC [hexane] + CCCCCCCCCCCCCC[P+](CCCCCC)(CCCCCC)CCCCCC.[Cl-] ?
a: 0.766

q: Moving on to the next compound: C#CCCCC [1-hexyne] + CCCCCCCCCCCCCC[P+](CCCCCC)(CCCCCC)CCCCCC.[Cl-]
a: 0.449

###

# test summary: activity coefficient (dimensionless); of the first substance listed, at infinite dilution; xn = mol fraction of the nth substance listed
# assay conditions: 328.15 K; Liquid; Chromatography; x1 = 0
Binary call on activity coefficient with cut-off 0.8: strictly below means YES, and equality or higher means NO.

q: Find out if reported activity coefficient for CCCCCC [hexane] + CCCCCCCCCCCCCC[P+](CCCCCC)(CCCCCC)CCCCCC.O=S(=O)([N-]S(=O)(=O)C(F)(F)F)C(F)(F)F is less than 0.8
a: YES

q: Also C1CCCCCC1 [cycloheptane] + CCCCCCCCCCCCCC[P+](CCCCCC)(CCCCCC)CCCCCC.O=S(=O)([N-]S(=O)(=O)C(F)(F)F)C(F)(F)F , if possible.
a: YES

q: Entry C#CCCCCC [1-heptyne] + CCCCCCCCCCCCCC[P+](CCCCCC)(CCCCCC)CCCCCC.F[B-](F)(F)F please
a: YES

q: Further, for C1CCCCC1 [cyclohexane] + CCCCCCCCCCCCCC[P+](CCCCCC)(CCCCCC)CCCCCC.O=S(=O)([N-]S(=O)(=O)C(F)(F)F)C(F)(F)F ?
a: YES

q: Can you check CO [methanol] + CCCCCCCCCCCCCC[P+](CCCCCC)(CCCCCC)CCCCCC.[Cl-] next?
a: NO

q: Moving on to the next compound: C#CCCCC [1-hexyne] + CCCCCCCCCCCCCC[P+](CCCCCC)(CCCCCC)CCCCCC.O=S(=O)([N-]S(=O)(=O)C(F)(F)F)C(F)(F)F
a: YES

q: Item: CCCCCCC [heptane] + CCCCCCCCCCCCCC[P+](CCCCCC)(CCCCCC)CCCCCC.O=S(=O)([N-]S(=O)(=O)C(F)(F)F)C(F)(F)F
a: YES

q: Follow-up entry: C1CCCCCC1 [cycloheptane] + CCCCCCCCCCCCCC[P+](CCCCCC)(CCCCCC)CCCCCC.F[B-](F)(F)F
a: NO

q: Check CCCCCC [hexane] + CCCCCCCCCCCCCC[P+](CCCCCC)(CCCCCC)CCCCCC.[Cl-] too.
a: YES

q: And C=CCCCCC [1-heptene] + CCCCCCCCCCCCCC[P+](CCCCCC)(CCCCCC)CCCCCC.F[B-](F)(F)F ?
a: YES

q: Try this compound next: C1CCCCC1 [cyclohexane] + CCCCCCCCCCCCCC[P+](CCCCCC)(CCCCCC)CCCCCC.F[B-](F)(F)F
a: YES

q: What about this compound? CO [methanol] + CCCCCCCCCCCCCC[P+](CCCCCC)(CCCCCC)CCCCCC.F[B-](F)(F)F
a: NO

q: Moving on to the next compound: C=CCCCC [hex-1-ene] + CCCCCCCCCCCCCC[P+](CCCCCC)(CCCCCC)CCCCCC.F[B-](F)(F)F
a: YES

###

# test summary: activity coefficient (dimensionless); of the first substance listed, at infinite dilution; xn = mol fraction of the nth substance listed
# assay conditions: 328.15 K; Liquid; Chromatography; x1 = 0
Where activity coefficient equals or exceeds 0.5, the correct label is 1 (yes); where it does not, the label is 0 (no).

q: // inclusive: activity coefficient at least 0.5? input: C=CCCCCC [1-heptene] + CCCCCCCCCCCCCC[P+](CCCCCC)(CCCCCC)CCCCCC.O=S(=O)([N-]S(=O)(=O)C(F)(F)F)C(F)(F)F
a: 1 (yes)

q: Likewise for C#CCCCC [1-hexyne] + CCCCCCCCCCCCCC[P+](CCCCCC)(CCCCCC)CCCCCC.[Cl-] ?
a: 0 (no)

q: Same question for C=CCCCCCC [oct-1-ene] + CCCCCCCCCCCCCC[P+](CCCCCC)(CCCCCC)CCCCCC.[Cl-] please.
a: 1 (yes)

q: Next entry: c1ccccc1 [benzene] + CCCCCCCCCCCCCC[P+](CCCCCC)(CCCCCC)CCCCCC.[Cl-]
a: 0 (no)

q: Check CO [methanol] + CCCCCCCCCCCCCC[P+](CCCCCC)(CCCCCC)CCCCCC.O=S(=O)([N-]S(=O)(=O)C(F)(F)F)C(F)(F)F too.
a: 1 (yes)

q: One more compound: C=CCCCCCC [oct-1-ene] + CCCCCCCCCCCCCC[P+](CCCCCC)(CCCCCC)CCCCCC.O=S(=O)([N-]S(=O)(=O)C(F)(F)F)C(F)(F)F
a: 1 (yes)

q: Okay, and C=CCCCC [hex-1-ene] + CCCCCCCCCCCCCC[P+](CCCCCC)(CCCCCC)CCCCCC.[Cl-] ?
a: 0 (no)

q: Entry C1CCCCCC1 [cycloheptane] + CCCCCCCCCCCCCC[P+](CCCCCC)(CCCCCC)CCCCCC.[Cl-] please
a: 1 (yes)

###

I'd be grateful if you could share measured activity coefficient for these entries.
# test summary: activity coefficient (dimensionless); of the first substance listed, at infinite dilution; xn = mol fraction of the nth substance listed
# assay conditions: 328.15 K; Liquid; Chromatography; x1 = 0

q: For C1CCCC1 [cyclopentane] + CCCCCCCCCCCCCC[P+](CCCCCC)(CCCCCC)CCCCCC.O=S(=O)([N-]S(=O)(=O)C(F)(F)F)C(F)(F)F , what is its reported activity coefficient?
a: 0.558

q: Next: C#CCCCC [1-hexyne] + CCCCCCCCCCCCCC[P+](CCCCCC)(CCCCCC)CCCCCC.F[B-](F)(F)F
a: 0.366

q: And for C#CCCCCCC [1-octyne] + CCCCCCCCCCCCCC[P+](CCCCCC)(CCCCCC)CCCCCC.[Cl-] ?
a: 0.526

q: Please give the result for c1ccccc1 [benzene] + CCCCCCCCCCCCCC[P+](CCCCCC)(CCCCCC)CCCCCC.O=S(=O)([N-]S(=O)(=O)C(F)(F)F)C(F)(F)F too.
a: 0.402

q: Another: CCO [ethanol] + CCCCCCCCCCCCCC[P+](CCCCCC)(CCCCCC)CCCCCC.O=S(=O)([N-]S(=O)(=O)C(F)(F)F)C(F)(F)F
a: 0.902

q: Then what about the compound C#CCCCCCC [1-octyne] + CCCCCCCCCCCCCC[P+](CCCCCC)(CCCCCC)CCCCCC.O=S(=O)([N-]S(=O)(=O)C(F)(F)F)C(F)(F)F ?
a: 0.532

q: Proceed to C=CCCCCCC [oct-1-ene] + CCCCCCCCCCCCCC[P+](CCCCCC)(CCCCCC)CCCCCC.F[B-](F)(F)F
a: 0.734

###

# test summary: activity coefficient (dimensionless); of the first substance listed, at infinite dilution; xn = mol fraction of the nth substance listed
# assay conditions: 308.15 K; Liquid; Chromatography; x1 = 0
Decision: activity coefficient >= 0.6 yields y, all other cases yield n.

q: API: above_or_equal(metric=activity coefficient, cutoff=0.6) for item C=CCCCCCC [oct-1-ene] + CCCCCCCCCCCCCC[P+](CCCCCC)(CCCCCC)CCCCCC.F[B-](F)(F)F
a: y

q: Follow-up item: CCO [ethanol] + CCCCCCCCCCCCCC[P+](CCCCCC)(CCCCCC)CCCCCC.F[B-](F)(F)F
a: y

q: Request: CCO [ethanol] + CCCCCCCCCCCCCC[P+](CCCCCC)(CCCCCC)CCCCCC.O=S(=O)([N-]S(=O)(=O)C(F)(F)F)C(F)(F)F
a: y

q: C=CCCCC [hex-1-ene] + CCCCCCCCCCCCCC[P+](CCCCCC)(CCCCCC)CCCCCC.O=S(=O)([N-]S(=O)(=O)C(F)(F)F)C(F)(F)F , same question.
a: n

q: // query: C#CCCCCCC [1-octyne] + CCCCCCCCCCCCCC[P+](CCCCCC)(CCCCCC)CCCCCC.O=S(=O)([N-]S(=O)(=O)C(F)(F)F)C(F)(F)F
a: n

q: Try the compound C1CCCCC1 [cyclohexane] + CCCCCCCCCCCCCC[P+](CCCCCC)(CCCCCC)CCCCCC.F[B-](F)(F)F
a: y

q: # repeat for C#CCCCCCC [1-octyne] + CCCCCCCCCCCCCC[P+](CCCCCC)(CCCCCC)CCCCCC.[Cl-]
a: n

q: Follow-up item: C1CCCC1 [cyclopentane] + CCCCCCCCCCCCCC[P+](CCCCCC)(CCCCCC)CCCCCC.O=S(=O)([N-]S(=O)(=O)C(F)(F)F)C(F)(F)F
a: n

q: Likewise for C=CCCCCC [1-heptene] + CCCCCCCCCCCCCC[P+](CCCCCC)(CCCCCC)CCCCCC.[Cl-] ?
a: n

q: Would you kindly repeat that for C1CCCC1 [cyclopentane] + CCCCCCCCCCCCCC[P+](CCCCCC)(CCCCCC)CCCCCC.[Cl-] ?
a: n

q: Please do the same for CCCCCC [hexane] + CCCCCCCCCCCCCC[P+](CCCCCC)(CCCCCC)CCCCCC.F[B-](F)(F)F as well.
a: y

q: // same read-out, input: CCCCCCC [heptane] + CCCCCCCCCCCCCC[P+](CCCCCC)(CCCCCC)CCCCCC.[Cl-]
a: y

q: Another compound: C#CCCCCC [1-heptyne] + CCCCCCCCCCCCCC[P+](CCCCCC)(CCCCCC)CCCCCC.F[B-](F)(F)F
a: n

q: What would you report for CCCCCCC [heptane] + CCCCCCCCCCCCCC[P+](CCCCCC)(CCCCCC)CCCCCC.F[B-](F)(F)F ?
a: y

q: What about c1ccccc1 [benzene] + CCCCCCCCCCCCCC[P+](CCCCCC)(CCCCCC)CCCCCC.[Cl-] ?
a: n
